Would you kindly list Relative potency (cimetidine = 1) for each of these molecules?
target.system: gastric histamine H2 receptors (Rattus norvegicus, UniProt P25102)
Construct: the gastric secretion is measured by perfusion of a physiological solution at a constant speed in the stomach of the animal; from tissue; host or cells: stomach of the living atropinized rat (in vivo, perfused stomach)
Sequence (P25102 whole entry, the tested form may be a part): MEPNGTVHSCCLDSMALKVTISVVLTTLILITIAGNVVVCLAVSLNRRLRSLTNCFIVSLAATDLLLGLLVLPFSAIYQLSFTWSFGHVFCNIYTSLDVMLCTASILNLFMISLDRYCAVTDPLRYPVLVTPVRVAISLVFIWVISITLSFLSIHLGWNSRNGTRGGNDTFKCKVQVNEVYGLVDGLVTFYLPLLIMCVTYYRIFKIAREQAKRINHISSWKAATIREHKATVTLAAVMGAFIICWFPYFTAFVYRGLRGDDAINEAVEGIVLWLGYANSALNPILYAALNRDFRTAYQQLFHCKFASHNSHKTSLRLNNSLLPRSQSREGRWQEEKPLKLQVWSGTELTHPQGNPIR
experimental.protocol: Antagonism of gastric hypersecretion induced by histamine in the atropinized rat (Ghosh and Schild modified according to Black et al.)
Format: in vivo
protocol.conditions: ID50-based, intravenous, compared to cimetidine
API doc: respond with a numeric literal and nothing else, no unit.

Provide measured Relative potency (cimetidine = 1) on gastric histamine H2 receptors (Rattus norvegicus, UniProt P25102) for CNC(=O)Nc1cccc(C(=O)NCCSCc2ccc(CN(C)C)o2)c1 please.
0.62

Provide measured Relative potency (cimetidine = 1) on gastric histamine H2 receptors (Rattus norvegicus, UniProt P25102) for CNC(=C[N+](=O)[O-])Nc1cccc(C(=O)NCCSCc2ccc(CN(C)C)o2)c1 please.
4.13

Provide measured Relative potency (cimetidine = 1) on gastric histamine H2 receptors (Rattus norvegicus, UniProt P25102) for CN(C)Cc1ccc(CSCCNC(=O)c2ccc(S(N)(=O)=O)cc2)o1 [Compound A, reference compound] please.
0.42

Provide measured Relative potency (cimetidine = 1) on gastric histamine H2 receptors (Rattus norvegicus, UniProt P25102) for CNC(=NC#N)Nc1cccc(C(=O)NCCSCc2ccc(CN(C)C)o2)c1 please.
1.90

Provide measured Relative potency (cimetidine = 1) on gastric histamine H2 receptors (Rattus norvegicus, UniProt P25102) for CNC(=C[N+](=O)[O-])NCCSCc1ccc(CN(C)C)o1 [Ranitidine, reference compound] please.
3.80

Provide measured Relative potency (cimetidine = 1) on gastric histamine H2 receptors (Rattus norvegicus, UniProt P25102) for CNC(=S)Nc1cccc(C(=O)NCCSCc2ccc(CN(C)C)o2)c1 please.
2.11
